Cited source for all entries: the RNAGym collection of RNA variant scans (doi:10.1021/acssynbio.7b00057)

B1: Pistol ribozyme (parent)
chain: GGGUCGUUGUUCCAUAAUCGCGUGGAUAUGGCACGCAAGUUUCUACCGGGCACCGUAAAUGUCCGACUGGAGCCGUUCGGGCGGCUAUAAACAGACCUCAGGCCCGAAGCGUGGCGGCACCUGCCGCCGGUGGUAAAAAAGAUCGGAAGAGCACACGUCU

# Variants of: B1
# protocol-text: aptazyme ON/OFF ratio, guanine; higher = stronger switching; co-transcriptional cleavage with and without guanine
Form field: aptazyme ON/OFF ratio (one value per entry).
Format: numeric value only, no unit, no commentary.

Examples from the recorded data:
# variant-label, aptazyme ON/OFF ratio
rows = [
    ("U7A U8C G9A U10G U11G C12U C13U", 1.07),
    ("U7A U8A G9C U10A U11C C12U C13G", 1.19),
    ("U7G U8C G9U U10C C12A C13A", 1.49),
]

Turning now to a further record.
Field request: aptazyme ON/OFF ratio | item: U7C U8A G9U U10G U11G C12U
1.25
